Molecular target: IRAK4 (Homo sapiens, UniProt Q9NWZ3)
Sequence (Q9NWZ3 whole entry): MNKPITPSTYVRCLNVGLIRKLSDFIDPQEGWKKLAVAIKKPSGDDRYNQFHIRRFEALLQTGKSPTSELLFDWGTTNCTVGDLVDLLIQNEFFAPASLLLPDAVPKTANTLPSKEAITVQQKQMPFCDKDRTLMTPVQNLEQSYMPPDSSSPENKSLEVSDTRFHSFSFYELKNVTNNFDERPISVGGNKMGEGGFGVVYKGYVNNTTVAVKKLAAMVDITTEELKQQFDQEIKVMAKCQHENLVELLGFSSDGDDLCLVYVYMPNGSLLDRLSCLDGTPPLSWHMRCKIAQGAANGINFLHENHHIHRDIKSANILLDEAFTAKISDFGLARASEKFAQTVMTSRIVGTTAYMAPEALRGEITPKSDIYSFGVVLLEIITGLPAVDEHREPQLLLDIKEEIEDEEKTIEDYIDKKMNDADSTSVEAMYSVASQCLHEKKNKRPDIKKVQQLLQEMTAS
Test: IRAK4 Inhibition Assay
Type: biochemical
Settings: ATP 500 μM; FL-IPTSPITTTYFFFKKK peptide […]; IRAK4 0.6 nM; 60 min room temperature; Caliper LABCHIP 3000
pIC50: −log10 of the molar value.
experimental-readout: pIC50

Here are 5 compounds together with their reported answers.
| compound | pIC50 |
| --- | --- |
| CC[C@@H]1CC(=O)N[C@@H]1COc1nccc2cc(C(N)=O)c3ncccc3c12 [Example 55] | 7.82 |
| CC[C@@H]1[C@H](F)C(=O)N[C@@H]1COc1cccc2cc(C(N)=O)n3nccc3c12 [Example 34] | 9.05 |
| CC[C@@H]1CC(=O)N[C@@H]1COc1ccc(F)c2cc(C(N)=O)c3nccn3c12 [Example 14] | 9.00 |
| CC[C@@H]1[C@H](F)C(=O)N[C@@H]1COc1cccc2cc(C(N)=O)c3ncnn3c12 [Example 38] | 7.22 |
| CC[C@@H]1CC(=O)N[C@@H]1COc1nccc2cc(C(N)=O)c3nc(C)nn3c12 [Example 49] | 7.54 |

P. CC[C@@H]1[C@H](F)C(=O)N[C@@H]1COc1nccc2cc(C(N)=O)c3nc(C)cn3c12 [Example 19]
Q. CC[C@H]1[C@@H](COc2cccc3cc(C(N)=O)c4nccn4c23)NC(=O)[C@@]1(C)F [Example 6]
R. CC[C@@H]1[C@H](F)C(=O)N[C@@H]1COC1=CC=CC2C(NC)=C(C(N)=O)c3nccn3C12 (stereo partly shown) [Example 61]
Input: Endpoint returns the given compounds ordered by ascending pIC50. Please respond with the labels ordered as the question requires.
Output: Q, R, P

1. CC[C@@H]1CC(=O)N[C@@H]1COC1=CC=CC2C=C(C#N)c3nccn3C12 (stereo partly shown) [Example 60]
2. CC[C@@H]1CC(=O)N[C@@H]1COc1cccc2cc(C(N)=O)c3nccn3c12 [Example 2]
3. CC[C@H]1[C@@H](COc2cccc3cc(C(N)=O)c4nccn4c23)NC(=O)C1(F)F [Example 10]
4. CC[C@@H]1CC(=O)N[C@@H]1COc1cccc2cc(C(N)=O)c3ncnn3c12 [Example 37]
Input: Kindly order the items shown according to pIC50, from the highest value down. Please respond with the labels ordered as the question requires.
Output: 3, 4, 2, 1
(3: 8.72, 4: 8.47, 2: 7.82, 1: 6.46)

A. CC[C@@H]1[C@H](F)C(=O)N[C@@H]1COc1cccc2cc(C(N)=O)c3nncn3c12 [Example 43]
B. CC[C@H]1CC(=O)N[C@@H]1COc1cccc2cc(C(N)=O)c3nccn3c12 [Example 3]
C. CC[C@H]1CC(=O)N[C@@H]1COc1nccc2cc(C(N)=O)c3nc(C(F)(F)F)cn3c12 [Example 31]
Input: Endpoint returns the given compounds ordered by ascending pIC50. Please respond with the labels ordered as the question requires.
Output: C, A, B

A. CC[C@H]1[C@@H](COc2nccc3cc(C(N)=O)c4nc(C)cn4c23)NC(=O)C1(F)F [Example 21]
B. CC[C@@H]1[C@H](F)C(=O)N[C@@H]1COc1nccc2cc(C(N)=O)c3c(c12)CC(C)(C)O3 [Example 63]
Input: Given the listed records, identify the one among A and B with higher pIC50. Record your answer as the label of the chosen record.
Output: B
(B: 8.66, A: 7.97)

I. CC[C@@H]1CC(=O)N[C@@H]1COc1nccc2cc(C(N)=O)c3nccn3c12 [Example 16]
II. CC[C@@H]1CC(=O)N[C@@H]1COc1nc(C)cc2cc(C(N)=O)c3nc(C)cn3c12 [Example 29]
III. CC[C@@H]1[C@H](F)C(=O)N[C@@H]1COc1nccc2cc(C(N)=O)c3ncnn3c12 [Example 47]
IV. CC[C@@H]1[C@H](F)C(=O)N[C@@H]1COc1nccc2cc(C(N)=O)c3nccn3c12 [Example 17]
Input: Kindly order the items shown according to pIC50, from the highest value down. Please respond with the labels ordered as the question requires.
Output: IV, I, III, II
(IV: 8.33, I: 7.96, III: 7.11, II: 6.22)
